Data credit: patent US11912705B2

assayTarget: Norepinephrine transporter (Homo sapiens, UniProt P23975)
Construct: Eurofins/Cerep (contract testing)
Sequence (P23975 whole entry): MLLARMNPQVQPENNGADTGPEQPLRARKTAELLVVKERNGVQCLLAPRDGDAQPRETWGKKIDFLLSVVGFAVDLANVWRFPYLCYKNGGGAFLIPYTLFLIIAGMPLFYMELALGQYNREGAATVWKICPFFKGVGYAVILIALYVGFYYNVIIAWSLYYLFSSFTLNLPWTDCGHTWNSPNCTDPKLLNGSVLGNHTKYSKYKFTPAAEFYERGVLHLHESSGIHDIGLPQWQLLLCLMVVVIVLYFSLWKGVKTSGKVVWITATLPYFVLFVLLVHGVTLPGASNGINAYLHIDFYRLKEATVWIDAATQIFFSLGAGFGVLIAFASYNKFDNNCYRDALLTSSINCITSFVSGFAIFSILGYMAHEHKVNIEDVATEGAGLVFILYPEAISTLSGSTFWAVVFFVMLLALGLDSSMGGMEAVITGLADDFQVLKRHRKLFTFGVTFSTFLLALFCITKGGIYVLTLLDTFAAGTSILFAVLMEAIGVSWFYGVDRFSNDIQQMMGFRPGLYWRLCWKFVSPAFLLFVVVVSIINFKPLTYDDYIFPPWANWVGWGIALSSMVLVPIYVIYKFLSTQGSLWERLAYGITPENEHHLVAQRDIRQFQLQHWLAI
protocol: Norepinephrine transporter uptake (h)
Assay type: cell-based
Each entry below carries its reported IC50.
measuredQuantity: IC50 (µM)

{"columns": ["molecule", "measuredQuantity", "unitDescriptor", "readoutValue"],
 "data": [
  ["CCCCC(C(=O)c1ccccc1)N1CCCCC1 (centres unmarked) [Compound (1), 1-phenyl-2-(piperidin-1-yl)hexan-1-one]", "IC50", "µM", 1.3],
  ["CCCCC(C(=O)c1ccccc1)N1CCCCCC1 (centres unmarked) [Compound (2), 2-(azepan-1-yl)-1-phenylhexan-1-one]", "IC50", "µM", 1.1]
]}

----------
Property: Ki; scope: individual compounds
assayTarget: human M2R (Homo sapiens, UniProt P08172)
Construct: host or cells: HEK293 (CRL-1573, ATCC), transient
Sequence (P08172 1-466): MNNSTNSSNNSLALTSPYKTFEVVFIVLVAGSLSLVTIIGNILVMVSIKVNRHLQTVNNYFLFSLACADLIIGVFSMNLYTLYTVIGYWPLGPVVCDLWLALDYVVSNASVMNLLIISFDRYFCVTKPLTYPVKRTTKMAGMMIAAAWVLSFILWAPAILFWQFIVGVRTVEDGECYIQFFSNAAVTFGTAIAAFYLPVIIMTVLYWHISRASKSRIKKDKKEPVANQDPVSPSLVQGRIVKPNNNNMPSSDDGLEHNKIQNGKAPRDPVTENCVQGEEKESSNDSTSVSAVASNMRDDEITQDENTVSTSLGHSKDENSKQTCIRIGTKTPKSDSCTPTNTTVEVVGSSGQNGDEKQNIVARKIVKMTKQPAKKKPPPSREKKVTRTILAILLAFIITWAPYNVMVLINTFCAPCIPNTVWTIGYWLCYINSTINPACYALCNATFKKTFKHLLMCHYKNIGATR
protocol: [3H]Scopolamine radioligand competition binding at M2R
measurementSetup: pKi at M2R, full dose-response [3H]Scopolamine competition binding; α-PPP and α-PBP interpolated

{"columns": ["compound", "Ki (µM)"],
 "data": [
  ["CCCCCC(C(=O)c1ccccc1)N1CCCC1 (stereo not drawn) [α-PHPP, α-Pyrrolidinoheptaphenone]", 0.661],
  ["CCC(C(=O)c1ccccc1)N1CCCC1 (stereo not drawn) [α-PBP, α-Pyrrolidinobutiophenone]", 39.8],
  ["CC(C(=O)c1ccccc1)N1CCCC1 (stereo not drawn) [α-PPP, α-Pyrrolidinopropiophenone]", 75.9]
]}

----------
assayTarget: human M3R (Homo sapiens, UniProt P20309)
Construct: host or cells: HEK293 (CRL-1573, ATCC), transient
Sequence (P20309 whole entry): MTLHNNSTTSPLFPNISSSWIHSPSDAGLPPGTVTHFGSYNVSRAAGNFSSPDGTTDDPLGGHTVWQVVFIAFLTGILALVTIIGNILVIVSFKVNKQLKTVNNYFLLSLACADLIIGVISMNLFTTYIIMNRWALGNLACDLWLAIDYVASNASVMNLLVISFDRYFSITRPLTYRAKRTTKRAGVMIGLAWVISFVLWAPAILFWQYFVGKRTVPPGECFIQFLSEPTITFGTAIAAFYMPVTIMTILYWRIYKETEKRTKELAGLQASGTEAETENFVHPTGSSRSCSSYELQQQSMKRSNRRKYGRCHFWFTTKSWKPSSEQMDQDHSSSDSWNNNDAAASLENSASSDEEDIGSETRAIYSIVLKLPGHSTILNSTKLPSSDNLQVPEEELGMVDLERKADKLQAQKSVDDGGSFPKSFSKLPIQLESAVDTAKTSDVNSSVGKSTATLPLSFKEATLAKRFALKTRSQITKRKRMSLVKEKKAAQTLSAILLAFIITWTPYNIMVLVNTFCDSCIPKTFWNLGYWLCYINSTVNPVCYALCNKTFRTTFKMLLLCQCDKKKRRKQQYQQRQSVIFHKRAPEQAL
protocol: biochemical
Format: binding
measurementSetup: estimate from 1 and 10 μM concentrations (N = 2); N.C. = <5% displacement of radioligand at 10 μM; read-out: estimated pKi at M3R (converted)

{"columns": ["compound", "unitDescriptor", "Ki"],
 "data": [
  ["CCCCC(C(=O)c1ccc2c(c1)OCO2)N1CCCC1 (stereo not shown) [MDPHP]", "µM", 25.7],
  ["CCCCCC(C(=O)c1ccc2c(c1)OCO2)N1CCCC1 (stereo not shown) [MDPHPP]", "µM", 36.3],
  ["CCCCC(C(=O)c1ccccc1)N1CCCC1 (stereo not drawn) [α-PHP, 1-phenyl-2-(pyrrolidin-1-yl)hexan-1-one]", "µM", 1.66],
  ["CCCC(C(=O)c1ccccc1)N1CCCC1 (stereo not drawn) [α-PVP, α-Pyrrolidinopentiophenone]", "µM", 6.03],
  ["CCCCCC(C(=O)c1ccccc1)N1CCCC1 (stereo not drawn) [α-PHPP, α-Pyrrolidinoheptaphenone]", "µM", 1.12],
  ["CCC(C(=O)c1ccc2c(c1)OCO2)N1CCCC1 (stereo not shown) [MDPBP]", "µM", 14.5],
  ["CCCC(C(=O)c1ccc2c(c1)OCO2)N1CCCC1 (stereo not shown) [MDPV, 3,4-Methylenedioxypyrovalerone]", "µM", 70.8]
]}

----------
assayTarget: human M1R (Homo sapiens, UniProt P11229)
Construct: host or cells: HEK293 (CRL-1573, ATCC), transient
Sequence (P11229 whole entry): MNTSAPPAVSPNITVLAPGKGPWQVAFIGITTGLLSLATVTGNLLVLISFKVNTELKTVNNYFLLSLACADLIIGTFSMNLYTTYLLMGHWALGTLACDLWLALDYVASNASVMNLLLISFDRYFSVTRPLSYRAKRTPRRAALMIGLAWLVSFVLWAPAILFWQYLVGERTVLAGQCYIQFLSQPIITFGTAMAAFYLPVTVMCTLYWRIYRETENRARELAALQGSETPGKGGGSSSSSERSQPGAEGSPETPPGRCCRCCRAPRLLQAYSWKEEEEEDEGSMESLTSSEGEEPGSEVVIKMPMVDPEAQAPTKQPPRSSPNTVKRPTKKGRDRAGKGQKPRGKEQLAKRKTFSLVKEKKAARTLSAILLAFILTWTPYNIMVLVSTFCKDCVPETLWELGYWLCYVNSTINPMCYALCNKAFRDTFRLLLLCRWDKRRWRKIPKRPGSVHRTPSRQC
protocol: biochemical
Assay type: binding
measurementSetup: human muscarinic M1 (N = 6), [3H]-N-methylscopolamine; read-out: Affinities, Ki ± SEM, nM M1

{"columns": ["molecule", "unitDescriptor", "Ki"],
 "data": [
  ["CCCCC(C(=O)c1ccccc1)N1CCCCC1 (centres unmarked)", "nM", 1010],
  ["CCCCC(C(=O)c1ccccc1)N1CCCCCC1 (centres unmarked)", "nM", 1490]
]}
